experiment: total protein half-life in vivo (active degradation + dilution); higher = more stable protein; conditions: wild type E. coli NCM3722; growth: P-lim chemostat; doubling time 6 h
Label True when total protein half-life in vivo >= 6 h; otherwise False.

>>> label_class("MSKTFARSSLCALSMTIMTAHAAEPPTNLDKPEGRLDIIAWPGYIERGQTDKQYDWVTQFEKETGCAVNVKTAATSDEMVSLMTKGGYDLVTASGDASLRLIMGKRVQPINTALIPNWKTLDPRVVKGDWFNVGGKVYGTPYQWGPNLLMYNTKTFPTPPDSWQVVFVEQNLPDGKSNKGRVQAYDGPIYIADAALFVKATQPQLGISDPYQLTEEQYQAVLKVLRAQHSLIHRYWHDTTVQMSDFKNEGVVASSAWPYQANALKAEGQPVATVFPKEGVTGWADTTMLHSEAKHPVCAYKWMNWSLTPKVQGDVAAWFGSLPVVPEGCKASPLLGEKGCETNGFNYFDKIAFWKTPIAEGGKFVPYSRWTQDYIAIMGGR")
"True"
>>> label_class("MRWQGRRESDNVEDRRNSSGGPSMGGPGFRLPSGKGGLILLIVVLVAGYYGVDLTGLMTGQPVSQQQSTRSISPNEDEAAKFTSVILATTEDTWGQQFEKMGKTYQQPKLVMYRGMTRTGCGAGQSIMGPFYCPADGTVYIDLSFYDDMKDKLGADGDFAQGYVIAHEVGHHVQKLLGIEPKVRQLQQNATQAEVNRLSVRMELQADCFAGVWGHSMQQQGVLETGDLEEALNAAQAIGDDRLQQQSQGRVVPDSFTHGTSQQRYSWFKRGFDSGDPAQCNTFGKSI")
"False"
>>> label_class("MRVLVVEDNALLRHHLKVQIQDAGHQVDDAEDAKEADYYLNEHIPDIAIVDLGLPDEDGLSLIRRWRSNDVSLPILVLTARESWQDKVEVLSAGADDYVTKPFHIEEVMARMQALMRRNSGLASQVISLPPFQVDLSRRELSINDEVIKLTAFEYTIMETLIRNNGKVVSKDSLMLQLYPDAELRESHTIDVLMGRLRKKIQAQYPQEVITTVRGQGYLFELR")
"False"
>>> label_class("MSKSRLTVFSFVRRFLLRLMVVLAVFWGGGIALFSVAPVPFSAVMVERQVSAWLHGNFRYVAHSDWVSMDQISPWMGLAVIAAEDQKFPEHWGFDVASIEKALAHNERNENRIRGASTISQQTAKNLFLWDGRSWVRKGLEAGLTLGIETVWSKKRILTVYLNIAEFGDGVFGVEAAAQRYFHKPASKLTRSEAALLAAVLPNPLRFKVSSPSGYVRSRQAWILRQMYQLGGEPFMQQHQLD")
"True"
>>> label_class("MAILGLGTDIVEIARIEAVIARSGDRLARRVLSDNEWAIWKTHHQPVRFLAKRFAVKEAAAKAFGTGIRNGLAFNQFEVFNDELGKPRLRLWGEALKLAEKLGVANMHVTLADERHYACATVIIES")
"False"
>>> label_class("MSESVQSNSAVLVHFTLKLDDGTTAESTRNNGKPALFRLGDASLSEGLEQHLLGLKVGDKTTFSLEPDAAFGVPSPDLIQYFSRREFMDAGEPEIGAIMLFTAMDGSEMPGVIREINGDSITVDFNHPLAGQTVHFDIEVLEIDPALEA [P0AEM0]")
"False"
>>> label_class("MRYIVALTGGIGSGKSTVANAFADLGINVIDADIIARQVVEPGAPALHAIADHFGANMIAADGTLQRRALRERIFANPEEKNWLNALLHPLIQQETQHQIQQATSPYVLWVVPLLVENSLYKKANRVLVVDVSPETQLKRTMQRDDVTREHVEQILAAQATREARLAVADDVIDNNGAPDAIASDVARLHAHYLQLASQFVSQEKP [P0A6I9]")
"False"
>>> label_class("MAMYQNMLVVIDPNQDDQPALRRAVYLHQRIGGKIKAFLPIYDFSYEMTTLLSPDERTAMRQGVISQRTAWIHEQAKYYLNAGVPIEIKVVWHNRPFEAIIQEVISGGHDLVLKMAHQHDRLEAVIFTPTDWHLLRKCPSPVWMVKDQPWPEGGKALVAVNLASEEPYHNALNEKLVKETIELAEQVNHTEVHLVGAYPVTPINIAIELPEFDPSVYNDAIRGQHLLAMKALRQKFGINENMTHVEKGLPEEVIPDLAEHLQAGIVVLGTVGRTGISAAFLGNTAEQVIDHLRCDLLVIKPDQYQTPVELDDEEDD [P0AAC0]")
"False"
